Test system: UACC-257
methodSummary: NCI tumour cell line growth inhibition, 48 h
Active and inactive are the calls of the source. No stated cut-off is given here; in the data, active = GI50 up to about 1.1 µM and inactive = higher.
experimentalEndpoint: GI50

{"compound": "C=CCCC(OCOCCOC)c1cc(C)c(O[Si](C)(C)C(C)(C)C)c(C)c1 (stereo not given)", "experimentalEndpoint": "GI50", "resultValue": "4.58 µM (inactive)"}
{"compound": "CCCC(=O)Oc1cc(OC(=O)CCC)c2c(C)cc(=O)oc2c1", "experimentalEndpoint": "GI50", "resultValue": "83.6 µM (inactive)"}
{"compound": "CC1(C)N=c2c(ncn2Cc2ccccc2)=C(C(N)=O)N1", "experimentalEndpoint": "GI50", "resultValue": "> 100 µM (inactive)"}
{"compound": "CCCN(CCC)C(=O)Cc1c2n(c3ccccc13)Cc1ccccc1-2", "experimentalEndpoint": "GI50", "resultValue": "> 100 µM (inactive)"}
{"compound": "CCc1ccccc1NC(=O)c1cccc([N+](=O)[O-])c1O", "experimentalEndpoint": "GI50", "resultValue": "19.9 µM (inactive)"}
{"compound": "O=C(/C=C/NC(=O)OCc1ccccc1)OCc1ccccc1", "experimentalEndpoint": "GI50", "resultValue": "> 100 µM (inactive)"}
{"compound": "c1ccc2cc(-c3cc(-c4cc(-c5ccc6ccccc6c5)on4)no3)ccc2c1", "experimentalEndpoint": "GI50", "resultValue": "> 100 µM (inactive)"}
{"compound": "CCN1CCC(O)(c2ccc([N+](=O)[O-])cc2)C(C(=O)c2ccc([N+](=O)[O-])cc2)C1 (stereo not given)", "experimentalEndpoint": "GI50", "resultValue": "17.9 µM (inactive)"}
{"compound": "C=C1C(OC(C)=O)CC(OC(C)=O)C2(C)C(OC(C)=O)C(OC(C)=O)C3=C(C)C(OC(=O)/C=C/c4ccccc4)CC(C(OC(C)=O)C12)C3(C)C (stereo not given)", "experimentalEndpoint": "GI50", "resultValue": "> 100 µM (inactive)"}
{"compound": "C1=Cc2cccc3occ(c23)C=C1", "experimentalEndpoint": "GI50", "resultValue": "> 100 µM (inactive)"}

Entry source: ChEMBL document CHEMBL1201862
